Provenance of the data: the supplement of paper PMC13380429

// reported cell viability for each item listed
Tested on: HepG2
Test: cell viability relative to DMSO; higher = less toxic
Conditions: 72 h; 1000 nM
Parameter Measured: cell viability

> print(dat)
                                   compound  result
1  CCOC(=O)[C@H](CCc1ccccc1)N[C@H]1CS[C@H](c2cccs2)CN(CC(=O)O)C1=O [temocapril]   96.7%
2  O=C1CCC[C@@H]2[C@H]3CCCN4CCC[C@@H](CN12)[C@@H]34 [matrine]    111%
3  COCCOc1ccc2c(c1)ncn2-c1ccc2cccc(N3CCC(N)CC3)c2n1   93.3%
4  Cc1cnc(-c2cnc(NCCNc3ccc(C#N)cn3)nc2-c2ccc(Cl)cc2Cl)[nH]1    113%
5  O=c1c(-c2ccc(O)cc2)coc2c([C@@H]3O[C@H](CO)[C@@H](O)[C@H](O)[C@H]3O)c(O)ccc12 [kakonein]   99.6%
6  COc1cc(C)[nH]c(=O)c1CNC(=O)c1c(C)n([C@H](C)C2CCOCC2)c2ccccc12 [CPI-360]   90.7%
7  Cn1cc(C2=C(c3cn(CCCSC(=N)N)c4ccccc34)C(=O)NC2=O)c2ccccc21 [bisindolylmaleimide-IX]   96.8%
8  CS(=O)(=O)N(Cc1ccco1)C[C@@H](O)Cn1c2ccccc2c2ccccc21 [KL-001]    104%

----------
// reported morphology score for each item listed
System: A549-ACE2 infected with SARS-CoV-2
Assay: morphology score (similarity to uninfected cells); higher = more like uninfected cells
Details: 30 µM; 24 h
Parameter Measured: morphology score

> print(dat)
                                   compound  parameter.measured  number
1  CN(NC(=O)CC(=O)NN(C)C(=S)c1ccccc1)C(=S)c1ccccc1    morphology score    0.39
2  O=C(CN1C2=NCCN2c2ccccc21)c1ccc(-c2ccccc2)cc1    morphology score   -0.05
3  C[S+]([O-])CCCCN=C=S (centres undefined)    morphology score    0.82
4  Clc1ccccc1CNC[C@H]1CC[C@H](CNCc2ccccc2Cl)CC1    morphology score    0.08

----------
// reported cell viability for each item listed
Tested on: U2OS
Assay: cell viability relative to DMSO; higher = less toxic
Details: 72 h; 1000 nM
Where a name gives a salt, the structure may show the parent alone.

Compound	Value Unit	cell viability
CN(C)CC/C=C1\c2ccccc2CSc2ccccc21 [dosulepin]	%	101
c1ccc(CCCCN2CCC(c3ccccc3)CC2)cc1	%	94.7
N=c1ccn2c(n1)O[C@H]1[C@H](O)[C@@H](CO)O[C@H]12 [Cyclocytidine HCl]	%	97.2
O=c1c(-c2ccc(O)cc2)coc2c([C@@H]3O[C@H](CO)[C@@H](O)[C@H](O)[C@H]3O)c(O)ccc12	%	94.6
O=C(O)c1c(Cl)c(Cl)c(Cl)c(Cl)c1-c1c2cc(I)c(=O)c(I)c-2oc2c(I)c(O)c(I)cc12	%	92.7
CCOP(=S)(OCC)Oc1cc(C)nc(C(C)C)n1 [dimpylate]	%	97.9
CCCNCCc1ccc(NS(=O)(=O)c2ccc(OC(F)(F)F)cc2)cc1	%	98.4
CN1C(=O)OC(C)(C)C1=O	%	105
CC(=O)Oc1c(C)cc(OCC(O)CNC(C)C)c(C)c1C (configuration not stated)	%	93.9
CC(C)(C)OC(=O)c1ncn2c1[C@@H]1CCCN1C(=O)c1c(Br)cccc1-2	%	92.6
CC[C@H](C)[C@@H]1NC(=O)[C@H](Cc2ccc(O)cc2)NC(=O)[C@@H](N)CSSC[C@@H](C(=O)N2CCC[C@H]2C(=O)N[C@@H](CC(C)C)C(=O)NCC(N)=O)NC(=O)[C@H](CC(N)=O)NC(=O)[C@H](CCC(N)=O)NC1=O	%	98.5
C[C@H](CS)C(=O)N1CCC[C@H]1C(=O)O	%	98
N[C@@H](CC(=O)Nc1ccc(Oc2cc(F)c(F)cc2Br)cc1)C(=O)O	%	94.7
O=C(Nc1ccc([N+](=O)[O-])cc1O)Nc1ccccc1Br	%	87
COc1cccc(CCc2ccccc2OCC(CN(C)C)OC(=O)CCC(=O)O)c1 (configuration not stated) [sarpogrelate]	%	103
OC[C@H]1O[C@@H](O[C@@H]2[C@H](O)[C@@H](O)[C@H](O[C@H]3[C@H](O)[C@@H](O)C(O)O[C@@H]3CO)O[C@@H]2CO)[C@H](O)[C@@H](O)[C@H]1O (some centres not stated)	%	94.8
O=C(NCNC(=O)NC1C(=O)NC(=O)N1CO)NC1C(=O)NC(=O)N1CO (configuration not stated)	%	98.3
